# TEST NAME: qHTS Assay for inhibitors of the human cytomegalovirus (HCMV); further: on the % scale 0 is the no-effect control and ±100 the full control effect
# EXPERIMENTAL PARAMETERS: HFF cells, HCMV-luciferase reporter, 72 h; at 57.5 µM; active compounds read low
Out of some 410,000 compounds screened, about 18,000 (4.4%) were called active. Roughly 7% stayed inconclusive and do not appear here. Many of the other results were omitted from the sample, so actives are more common in it than they were.
Could you please report measured activity change, negative = inhibition for the items listed next?

Below are worked cases with known answers.
State its activity change, negative = inhibition for this compound: O=C(Nc1nnc(S(=O)(=O)N2CCCc3ccccc32)s1)c1cccc(F)c1 -22.4% (inactive)

Output measured activity change, negative = inhibition for this item: O=C(CCNC(=O)c1ccc([N+](=O)[O-])cc1)Nc1ccccc1N1CCOCC1 -0.0167% (inactive)

For the compound CCN(CC(=O)Nc1c(F)cccc1F)C(=O)c1ccc(S(=O)(=O)N2CCCCC2)cc1 , give its measured activity change, negative = inhibition value. -16.4% (inactive)

Give the reported activity change, negative = inhibition for this compound. CC(C(=O)N1CCN(c2ccccc2F)CC1)c1ccc([N+](=O)[O-])cc1 (stereo not given) -11.5% (inactive)

Please give the documented activity change, negative = inhibition of COc1ccc(N=CN2c3ccccc3-n3cccc3C2CCc2ccccc2)cc1 (stereo not given) 29.9% (inactive)

Read off the recorded activity change, negative = inhibition for CCOC(=O)c1scc(-c2ccccc2)c1S(=O)(=O)Nc1ccccc1F -9.83% (inactive)

Give activity change, negative = inhibition for all compounds that follow.
1. Cn1c(=O)oc2cc(S(=O)(=O)CCC(=O)NCCc3ccc(Cl)cc3)ccc21
2. COC(=O)c1scc(-c2ccccc2)c1S(=O)(=O)Nc1ccccc1
3. CN(C)CCCN(C(=O)c1ccc(S(=O)(=O)N2CCCCCC2)cc1)c1nc2ccc(Br)cc2s1
4. Cc1ccc(NC(=O)COC(=O)CNC(=O)c2ccc(Cl)cc2Cl)cc1S(=O)(=O)N1CCOCC1

["11.3% (inactive)", "-65.6% (active)", "-66.2% (active)", "-100% (active)"]

These entries and their values trace back to PubChem BioAssay AID1259415.
